target: T1, hRSV FTM-NN (membrane anchorless form of the Long fusion protein, 70 kDa) (human respiratory syncytial virus, …, UniProt P12568 26-524); assay: ELISA on immobilized FTM-NN, periplasmic extract 1:10
T1 construct: also called FTM-NN (Long); hRSV FTM-protein
MEASURE: Binding Long 1:10 PE (Fold blanc) (fold blanc)
Reply numerically in fold blanc, unit not repeated.

The examples below pair each entry with its known result.
[
  {
    "BINDER": "Nanobody 19E2 (VHH, also called PMP19E2; PRSV19E2) VHH: EVQLVESGGGLVQPGGSLRLSCAASGLTLDYYALGWFRQAPGKEREGVSCISSSDHTTTYTDSVKGRFTISWDNAKNTLYLQMNSLKPEDTAVYYCAADPALGCYSGSYYPRYDFWGQGTQVTVSS",
    "UNIT ANNOTATION": "fold blanc",
    "MEASURED": 3.5
  },
  {
    "BINDER": "Nanobody 13B4 (VHH, also called PMP13B4; PRSV13B4) VHH: EVQLVESGGGLVQAGGSLRLSCAASGFTFDDYAIGWFRQAPGKEREAVSCISSSDGSTYYADSVKGRFTISSDNAKNMVYLQMNSLKPEDTAVYYCAADLLRTAVGCLDYRGTYYPRTTMDYRGKGTLVTVSS",
    "UNIT ANNOTATION": "fold blanc",
    "MEASURED": 2.7
  },
  {
    "BINDER": "Nanobody 13D1 (VHH, also called PMP13D1; PRSV13D1) VHH: EVQLVESGGGLVQPGGSLRLSCATSGFTEDYYVIGWFRQAPGKEREGVSCMSSSGDSTTYADSVKGRFTISRDNAKNMVYLQMTSLKPEDTAVYYCAADFALGCYSGSYYPRYDYWGQGTQVTVSS",
    "UNIT ANNOTATION": "fold blanc",
    "MEASURED": 3.1
  }
]

# input for lookup
Answer with the recorded Binding Long 1:10 PE (Fold blanc) for the binder listed here: Nanobody 7B2 (VHH, also called PMP7B2; PRSV7B2) VHH: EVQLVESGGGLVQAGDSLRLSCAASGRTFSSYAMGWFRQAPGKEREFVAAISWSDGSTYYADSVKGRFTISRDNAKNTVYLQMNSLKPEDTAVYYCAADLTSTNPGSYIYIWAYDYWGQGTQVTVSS 4.7
